experimental-target: STAT6 (Homo sapiens)
Construct: These cells express endogenous STAT6; host or cells: HeLa LgBiT clone 4.14
Sequence (P42226 whole entry): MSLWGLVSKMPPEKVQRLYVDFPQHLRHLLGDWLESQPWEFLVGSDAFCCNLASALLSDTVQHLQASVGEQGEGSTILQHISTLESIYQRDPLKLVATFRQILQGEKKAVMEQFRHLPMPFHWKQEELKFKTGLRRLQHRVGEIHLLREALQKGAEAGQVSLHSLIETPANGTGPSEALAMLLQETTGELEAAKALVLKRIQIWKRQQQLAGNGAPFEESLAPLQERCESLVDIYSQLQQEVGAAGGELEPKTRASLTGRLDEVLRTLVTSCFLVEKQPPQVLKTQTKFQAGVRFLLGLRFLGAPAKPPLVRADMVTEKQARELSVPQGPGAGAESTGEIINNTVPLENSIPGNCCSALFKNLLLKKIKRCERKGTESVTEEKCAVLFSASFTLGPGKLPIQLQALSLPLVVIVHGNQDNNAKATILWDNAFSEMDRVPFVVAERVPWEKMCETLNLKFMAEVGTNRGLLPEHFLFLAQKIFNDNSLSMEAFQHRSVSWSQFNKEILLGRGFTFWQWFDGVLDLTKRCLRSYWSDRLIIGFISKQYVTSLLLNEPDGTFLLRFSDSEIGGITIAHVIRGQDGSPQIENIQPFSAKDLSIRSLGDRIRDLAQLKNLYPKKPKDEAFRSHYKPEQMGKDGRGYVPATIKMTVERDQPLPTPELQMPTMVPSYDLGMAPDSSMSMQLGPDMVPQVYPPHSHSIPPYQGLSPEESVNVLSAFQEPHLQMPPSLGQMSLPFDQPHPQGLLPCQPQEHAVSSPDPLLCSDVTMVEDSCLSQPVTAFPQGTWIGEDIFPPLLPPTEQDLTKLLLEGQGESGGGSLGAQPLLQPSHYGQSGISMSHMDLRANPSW
assay-procedure: Stat6 Degrader Assay (HiBiT based, HeLa LgBiT clone 4.14)
Type: cell-based
test-conditions: HeLa LgBiT clone 4.14 HiBiT-STAT6, 4-24 h incubation; values given for compounds with >80% Emax; geometric mean; read-out: STAT6 degradation DC50
value-type: DC50 (nM)

* CNc1ccn(-c2ccnc3c2cc([C@H](C)N2CC=C(c4c(C)cc(C(=O)N5CCC(CN6CCN(Cc7cc8c(cc7F)n([C@H]7CCC(=O)NC7=O)c(=O)n8C7CC7)CC6)CC5)cc4F)CC2)n3C)c(=O)c1 (single isomer, unassigned) | 0.9
* C[C@H]1CN(Cc2cc3c(cc2F)N(C2CCC(=O)NC2=O)C(=O)C3(C)C)CCN1CC1CCN(C(=O)c2cc(F)c(C3=CCN([C@@H](C)c4cc5c(-n6ccc7c(c6=O)CCN7)ccnc5n4C)CC3)c(F)c2)CC1 (stereo partly shown) | 2

P = CNc1ccn(-c2ccnc3c2cc([C@H](C)N2CC=C(c4c(C)cc(C(=O)N(C)c5ccc(C6CCN(Cc7ccc8c(c7)C(C)(C)C(=O)N8C7CCC(=O)NC7=O)CC6)cc5)cc4F)CC2)n3C)c(=O)c1 (stereo partly shown)
Q = CNc1ccn(-c2ccnc3c2cc([C@H](C)N2CC=C(c4c(C)cc(C(=O)N5CCC(CN6CCN(Cc7cc8c(cc7F)n(C7CCC(=O)NC7=O)c(=O)n8C7CC7)CC6)CC5)cc4F)CC2)n3C)c(=O)c1 (stereo partly shown)
## Task For this pair, P and Q , which shows a numerically higher DC50? Answer = label.
## Result Q
(Q: 2.5 nM, P: 0.1 nM)

Hello, the source for this data is patent US20250320206A1, in case you need it.
